Cited source: patent EP0014443B1

- protocol: Solubility in solvents
- Format: physicochemical
- conditionDetails: organic solvent or mixture; in Butanol; read-out: Löslichkeit
measuredParameter: solubility
Field note: include the unit after the figure.

Query: # input compound: COC(=O)Nc1nc2ccccc2[nH]1 [II, Benzimidazolcarbaminsäuremethylester] ; wanted: its solubility
Response: 0.6 mg/mL

* * *

- protocol: Solubility in solvents
- Format: physicochemical
- conditionDetails: water; in Wasser; read-out: Löslichkeit
measuredParameter: solubility (µg/mL)
Report as a plain number; the unit µg/mL is understood.

Query: # input compound: COC(=O)Nc1nc2ccccc2[nH]1 ; wanted: its solubility
Response: 6
